Molecular target: T1, human SIRPα v3-Fc (SIRPα3 extracellular domain fused to human IGHG1_Fc) (human, UniProt P78324 31-373; P0DOX5 223-449 = IgG part)
T1 construct: as m38; also called V3 (e.g. SIRPα3)
Test: BLI Octet, antigen-Fc on biosensor;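 further: antigen captured on the biosensor tip and then immersed in solutions of the test antibodies, which act as the analyte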
Recorded Kd values for a group of binders are listed next.
assay-endpoint: Kd (nM)

1) SIRPAB-9 (antibody, human IgG1, kappa, V domains shown) VH: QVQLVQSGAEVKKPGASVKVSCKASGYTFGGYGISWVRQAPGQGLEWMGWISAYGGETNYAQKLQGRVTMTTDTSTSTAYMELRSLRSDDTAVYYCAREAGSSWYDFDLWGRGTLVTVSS VL: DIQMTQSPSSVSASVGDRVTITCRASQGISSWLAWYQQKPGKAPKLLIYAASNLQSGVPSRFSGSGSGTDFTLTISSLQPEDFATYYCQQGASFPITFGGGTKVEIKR	0.53
2) SIRPAB-8 (antibody, human IgG1, kappa, V domains shown) VH: QVQLVQSGAEVKKPGASVKVSCKASGYTFTSYGISWVRQAPGQGLEWMGWISPYNGNTNYAQKLQGRVTMTTDTSTSTAYMELRSLRSDDTAVYYCAREAGSSWYDFDLWGRGTLVTVSS VL: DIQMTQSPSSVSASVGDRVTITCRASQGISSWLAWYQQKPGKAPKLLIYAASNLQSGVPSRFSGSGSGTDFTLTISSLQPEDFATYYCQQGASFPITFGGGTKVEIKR	22.3
